Test system: SNB-75
Assay: NCI tumour cell line growth inhibition, 48 h
Calls of active or inactive are those of the source. No stated cut-off is given here; in the data, active = GI50 up to about 1.1 µM and inactive = higher.
Use one of these outcomes when replying: 1 = active, 0 = inactive

COC(=O)C1CC2(CC3=C1CCCC3)OCCO2 (stereo unspecified) ... 0
CCSC1=C(C)N(/C=N/C(C)(C)C)CC1 ... 0
Cc1sc(/N=C/c2c[nH]c3ccccc23)c(C#N)c1C ... 0
CC[n+]1c(/C=C/c2ccc(N(CCCl)CCCl)cc2)ccc2cc(I)ccc21 ... 1
O=C(O)c1cc(S(=O)(=O)N/N=C\c2c3ccccc3[n+]([O-])c3ccccc23)ccc1O ... 0
CC(O)C1OC(O)C2OC(C)(C)OC12 (stereo unspecified) ... 0

Prompt: What call does the record list for O=C1Oc2cc3c(c4cccc1c24)OCN(c1ccc(Cl)cc1)C3 ?
Response: 0

Prompt: What call does the record list for NCCN1C(=O)c2cc(Cl)c(Cl)cc2C1(O)c1ccc(Cl)cc1 (stereo unspecified) ?
Response: 0

Prompt: What call does the record list for CC(C)NC1CCCCC2c3ccccc3C12O (stereo unspecified) ?
Response: 0

Prompt: What call does the record list for C[C@]12CC[C@H]3[C@@H](CC[C@]4(O)C[C@@H](O)CC[C@]34CO)[C@@]1(O)CC[C@@H]2C1=CC(=O)OC1 ?
Response: 0

Prompt: What call does the record list for CN1C2CCC1CN(CCOC(c1ccc(F)cc1)c1ccc(F)cc1)C2 ?
Response: 0
